Values were extracted from ChEMBL document CHEMBL1201862.

Test system: IGROV-1
assay-name: NCI tumour cell line growth inhibition, 48 h
Activity calls are given as the source filed them. No stated cut-off is given here; in the data, active = GI50 up to about 1.1 µM and inactive = higher.
measured-property: GI50

// known answers, use as guide
O=C1CC(c2ccc(Cl)cc2)Oc2ccccc21 (centres undefined) :: 14.6 µM (inactive)
COc1cc(C(=O)C/C(CCC(=O)Nc2ccc(Cl)cc2Cl)=N/NC(=O)C(N)=O)ccc1O :: > 100 µM (inactive)
ClCc1ccc(C2OCCO2)cc1 :: > 72.4 µM (inactive)

Specify measured GI50 for `Cc1ccc(Sc2ccc(C)cc2[N+](=O)[O-])c([N+](=O)[O-])c1` .
> 100 µM (inactive)

Specify measured GI50 for `Cc1cc(S(=O)(=O)/N=C(\NN)NCC(=O)NN)c(S)cc1Cl` .
> 10 µM (inactive)
